These entries and their values trace back to paper PMC11859184.

For each of the molecules below, state its tissue to tissue ratio at 1 h.
Experiment: Ex vivo biodistribution of 177Lu-labeled ligands in PC-3 tumor-bearing mice
Details: male, NOD.Cg-Rag1^tm1Mom Il2rg^tm1Wjl/SzJ (NRG), mouse, tumor/pancreas, iv, total radioactivity, 1 h pi, blocked (100 µg GRPR antagonist co-injected); read-out: Tumor/pancreas uptake ratio

Query: If you can, please state the reported tissue to tissue ratio at 1 h value of CC(C)C[C@@H](CN1CC(F)(F)C[C@H]1C(N)=O)NC(=O)[C@H](Cc1c[nH]cn1)NC(=O)CN(C)C(=O)[C@@H](NC(=O)[C@H](C)NC(=O)[C@H](Cc1c[nH]c2ccccc12)NC(=O)[C@H](CCC(N)=O)NC(=O)[C@@H](Cc1ccccc1)NC(=O)CN1CCC(NC(=O)CN2CCN(CC(=O)O)CCN(CC(=O)O)CCN(CC(=O)O)CC2)CC1)C(C)C [[^177Lu]Lu-LW02080, metal not drawn] .
Result: 6.53

Query: Another molecule to look at: CC(C)C[C@H](NC(=O)[C@H](Cc1cnc[nH]1)N(C)C(=O)CNC(=O)[C@@H](NC(=O)[C@H](C)NC(=O)[C@H](Cc1c[nH]c2ccccc12)NC(=O)[C@H](CCC(N)=O)NC(=O)[C@@H](Cc1ccccc1)NC(=O)CN1CCC(NC(=O)CN2CCN(CC(=O)O)CCN(CC(=O)O)CCN(CC(=O)O)CC2)CC1)C(C)(C)C)C(=O)N1CC(F)(F)C[C@H]1C(N)=O [[^177Lu]Lu-LW02060, metal not drawn]
Result: 6.72
